Source: ChEMBL document CHEMBL1641411

Experiment: AUC in rat at 2 mg/kg, po
Assay type: ADME, organism-based
Set-up: dose 2 mg/kg, route oral
Details: plasma
This section presents compounds with their documented AUC values.

{"compound-structure-string": "C[C@](O)(c1ccc(C(=O)N(C2CC2)[C@H]2CC[C@](COC(N)=O)(c3ccccc3)CC2)cc1)C(F)(F)F", "AUC (ng·h/mL)": 2770}
{"compound-structure-string": "C[C@](O)(c1ccc(C(=O)N(C2CC2)[C@H]2CC[C@](COC(N)=O)(c3cscn3)CC2)cc1)C(F)(F)F", "AUC (ng·h/mL)": 618}
{"compound-structure-string": "C[C@](O)(c1ccc(C(=O)N(C2CC2)[C@H]2CC[C@](COC(N)=O)(c3ccccn3)CC2)cc1)C(F)(F)F", "AUC (ng·h/mL)": 6180}
{"compound-structure-string": "C[C@](O)(c1ccc(C(=O)N(C2CC2)[C@H]2CC[C@](COC(N)=O)(c3ccccc3F)CC2)cc1)C(F)(F)F", "AUC (ng·h/mL)": 6790}

====

Assay: Plasma concentration in cynomolgus monkey at 100 mg/kg, po after 2 hrs by LC/MS/MS analysis
Format: ADME, organism-based, Macaca fascicularis
Set-up: dose 100 mg/kg, route oral
endpoint-label: concentration at 2 h (ng/mL)

{"compound-structure-string": "C[C@](O)(c1ccc(C(=O)N(C2CC2)[C@H]2CC[C@](CCC(N)=O)(c3ccccc3)CC2)cc1)C(F)(F)F", "endpoint-label": "concentration at 2 h", "recorded-result": 1710}

====

Experiment: Metabolic stability in human liver microsomes assessed as compound turnover at 30 mins
Type: ADME, Microsome
Conditions: read-out: Stability

{"compound-structure-string": "C[C@](O)(c1ccc(C(=O)N(C2CC2)[C@H]2CC[C@](COC(N)=O)(c3ccccc3)CC2)cc1)C(F)(F)F", "metabolised at 0.5 h": "< 10%"}
{"compound-structure-string": "C[C@](O)(c1ccc(C(=O)N(C2CC2)[C@H]2CC[C@](CC(N)=O)(c3ccccc3)CC2)cc1)C(F)(F)F", "metabolised at 0.5 h": "< 10%"}
{"compound-structure-string": "C[C@](O)(c1ccc(C(=O)N(C2CC2)[C@H]2CC[C@](CC#N)(c3ccccc3)CC2)cc1)C(F)(F)F", "metabolised at 0.5 h": "19%"}
{"compound-structure-string": "C[C@](O)(c1ccc(C(=O)N(C2CC2)[C@H]2CC[C@](CNS(C)(=O)=O)(c3ccccc3)CC2)cc1)C(F)(F)F", "metabolised at 0.5 h": "< 10%"}
{"compound-structure-string": "C[C@](O)(c1ccc(C(=O)N(C2CC2)[C@H]2CC[C@](CCC#N)(c3ccccc3)CC2)cc1)C(F)(F)F", "metabolised at 0.5 h": "10%"}
{"compound-structure-string": "C[C@](O)(c1ccc(C(=O)N(C2CC2)[C@H]2CC[C@](COC(N)=O)(c3ccc(F)cn3)CC2)cc1)C(F)(F)F", "metabolised at 0.5 h": "< 10%"}
{"compound-structure-string": "C[C@](O)(c1ccc(C(=O)N(C2CC2)[C@H]2CC[C@](COC(N)=O)(c3cscn3)CC2)cc1)C(F)(F)F", "metabolised at 0.5 h": "< 10%"}

====

Assay: Metabolic stability in rat liver microsomes assessed as compound turnover at 30 mins
Assay type: ADME, Microsome
Details: read-out: Stability
Items are presented alongside their recorded metabolised at 0.5 h.

{"compound-structure-string": "CC(=O)NC[C@]1(c2ccccc2)CC[C@H](N(C(=O)c2ccc([C@](C)(O)C(F)(F)F)cc2)C2CC2)CC1", "metabolised at 0.5 h": "< 10%"}
{"compound-structure-string": "C[C@](O)(c1ccc(C(=O)N(C2CC2)[C@H]2CC[C@](CCC(N)=O)(c3ccccc3F)CC2)cc1)C(F)(F)F", "metabolised at 0.5 h": "< 10%"}
{"compound-structure-string": "C[C@](O)(c1ccc(C(=O)N(C2CC2)[C@H]2CC[C@](O)(C3CC3)CC2)cc1)C(F)(F)F", "metabolised at 0.5 h": "< 10%"}
